tested on: cMAC mRNA; experiment: cMAC mRNA knockdown in shDNA transduced Jurkat cells; type: cell-based; settings: 3 days post infection (2 days post puromycin selection)
measured attribute: Average cMAC mRNA % Inhib. (%)
Form entry: value (%) — number only.

Guide cases for Average cMAC mRNA % Inhib., answers given:
molecule	Average cMAC mRNA % Inhib. (%)
cMAC BL3: shDNA construct in pLKO.1 lentiviral vector, target sequence catctttgttggcctacga (SEQ ID NO: 108) (nucleic acid) sense: CCGGCATCTTTGTTGGCCTACGATTCAAGAGATCGTAGGCCAACAAAGATGTTTTT antisense: AATTAAAAACATCTTTGTTGGCCTACGATCTCTTGAATCGTAGGCCAACAAAGATG	30.1
cMAC BL9: shDNA construct in pLKO.1 lentiviral vector, target sequence caggaatgtcctccaacca (SEQ ID NO: 126) (nucleic acid) sense: CCGGCAGGAATGTCCTCCAACCATTCAAGAGATGGTTGGAGGACATTCCTGTTTTT antisense: AATTAAAAACAGGAATGTCCTCCAACCATCTCTTGAATGGTTGGAGGACATTCCTG	54.8
cMAC BL5: shDNA construct in pLKO.1 lentiviral vector, target sequence gatttaagcctccctaaga (SEQ ID NO: 114) (nucleic acid) sense: CCGGGATTTAAGCCTCCCTAAGATTCAAGAGATCTTAGGGAGGCTTAAATCTTTTT antisense: AATTAAAAAGATTTAAGCCTCCCTAAGATCTCTTGAATCTTAGGGAGGCTTAAATC	67.0

Consider the record given below.
Average cMAC mRNA % Inhib. for cMAC BL6: shDNA construct in pLKO.1 lentiviral vector, target sequence actagaatgttgacctcga (SEQ ID NO: 117) (nucleic acid) sense: CCGGACTAGAATGTTGACCTCGATTCAAGAGATCGAGGTCAACATTCTAGTTTTTT antisense: AATTAAAAAACTAGAATGTTGACCTCGATCTCTTGAATCGAGGTCAACATTCTAGT ?
35.8
